experiment: Metabolic stability and noribogaine formation in human liver microsomes (HLM), LC-MS/MS; settings: human, microsomes, pH 7.4
readout: half-life at 10 µM

compound | observed.value
CCOc1ccc2[nH]c3c(c2c1)CCN1CC2CC(CC)C1C3C2 (centres unmarked) [10-Ethoxy-ibogamine] | > 1 h

Now look at this one.
half-life at 10 µM lookup needed for CCC1CC2CC3c4[nH]c5ccc(OC)cc5c4CCN(C2)C13 (centres unmarked) [Ibogaine] , thanks.
> 1 h

---

biological target: hSERT (Homo sapiens); experiment: hSERT screening assay: inhibition of uptake of the fluorescent substrate APP+ in stably transfected hSERT-HEK cells; conditions: Cheng-Prusoff from IC50, Km (APP+) = 1.6 µM; read-out: SERT Ki
readout: Ki (µM)
Numeric only. Scale: µM

The cases that follow already have their Ki on record.
compound | assayed.target | scale.unit | Ki
CCC1CC2CC3c4[nH]c5ccccc5c4CCN(C2)C13 (stereo not drawn) | hSERT (Homo sapiens) | µM | 0.2
CCC1CC2CC3c4[nH]c5ccc(OC)c(Br)c5c4CCN(C2)C13 (stereo not drawn) | hSERT (Homo sapiens) | µM | 0.4

Ki lookup needed for CCC1CC2CC3c4c(c5cc(O)ccc5n4C)CCN(C2)C13 (stereo not drawn) , thanks.
0.035

---

molecular target: rVMAT2 (Rattus norvegicus, UniProt Q01827); construct: expressed in transfected cells; host or cells: HEK cells, stably transfected (rVMAT2-HEK); assay: rVMAT2 screening assay: inhibition of uptake of the fluorescent substrate FFN206 in stably transfected rVMAT2-HEK cells; format: cell-based; conditions: read-out: VMAT2 Ki
Sequence (Q01827 whole entry): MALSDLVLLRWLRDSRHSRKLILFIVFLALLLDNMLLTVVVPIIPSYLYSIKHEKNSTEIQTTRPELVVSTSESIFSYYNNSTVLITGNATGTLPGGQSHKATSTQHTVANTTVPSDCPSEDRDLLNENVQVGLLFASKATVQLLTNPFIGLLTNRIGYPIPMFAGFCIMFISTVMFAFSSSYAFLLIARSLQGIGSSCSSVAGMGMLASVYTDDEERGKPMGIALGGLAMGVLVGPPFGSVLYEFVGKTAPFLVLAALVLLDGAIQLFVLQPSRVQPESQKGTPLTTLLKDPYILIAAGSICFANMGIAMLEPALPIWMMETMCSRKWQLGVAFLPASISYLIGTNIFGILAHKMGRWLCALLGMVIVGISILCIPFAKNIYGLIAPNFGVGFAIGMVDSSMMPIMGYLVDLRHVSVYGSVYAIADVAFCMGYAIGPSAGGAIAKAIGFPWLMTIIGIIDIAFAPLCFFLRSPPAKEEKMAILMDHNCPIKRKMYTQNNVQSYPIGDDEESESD
Ki reference
Numeric only. Scale: nM

The cases that follow already have their Ki on record.
compound | Ki / nM
CCC1CC2CC3c4[nH]c5ccccc5c4CCN(C2)C13 (stereo not shown) | 1800
CCC1CC2CC3c4[nH]c5ccc(OC)c(Br)c5c4CCN(C2)C13 (stereo not shown) | 3000
CCOc1ccc2[nH]c3c(c2c1)CCN1CC2CC(CC)C1C3C2 (stereo not shown) | 50

Now look at this one.
What value of Ki on rVMAT2 (Rattus norvegicus, UniProt Q01827) does CCC1CC2CC3c4c(c5cc(O)ccc5n4C)CCN(C2)C13 (stereo not shown) have?
100

---

molecular target: rVMAT2 (Rattus norvegicus, UniProt Q01827); construct: expressed in transfected cells; host or cells: HEK cells, stably transfected (rVMAT2-HEK); assay: rVMAT2 screening assay: inhibition of uptake of the fluorescent substrate FFN206 in stably transfected rVMAT2-HEK cells; assay type: cell-based
pIC50: −log10 of the molar value.
readout: pIC50

What value of pIC50 on rVMAT2 (Rattus norvegicus, UniProt Q01827) does CCC1CC2CC3c4[nH]c5ccc(OC)cc5c4CCN(C2)C13 (stereo not shown) [Ibogaine] have?
~5.40

---

target: hSERT (Homo sapiens, UniProt P31645); assay: hSERT screening assay: inhibition of uptake of the fluorescent substrate APP+ in stably transfected hSERT-HEK cells; settings: hSERT-HEK cells, APP+ 1.1 µM, mean ± SEM, n ≥ 4; read-out: SERT IC50
Sequence (P31645 whole entry): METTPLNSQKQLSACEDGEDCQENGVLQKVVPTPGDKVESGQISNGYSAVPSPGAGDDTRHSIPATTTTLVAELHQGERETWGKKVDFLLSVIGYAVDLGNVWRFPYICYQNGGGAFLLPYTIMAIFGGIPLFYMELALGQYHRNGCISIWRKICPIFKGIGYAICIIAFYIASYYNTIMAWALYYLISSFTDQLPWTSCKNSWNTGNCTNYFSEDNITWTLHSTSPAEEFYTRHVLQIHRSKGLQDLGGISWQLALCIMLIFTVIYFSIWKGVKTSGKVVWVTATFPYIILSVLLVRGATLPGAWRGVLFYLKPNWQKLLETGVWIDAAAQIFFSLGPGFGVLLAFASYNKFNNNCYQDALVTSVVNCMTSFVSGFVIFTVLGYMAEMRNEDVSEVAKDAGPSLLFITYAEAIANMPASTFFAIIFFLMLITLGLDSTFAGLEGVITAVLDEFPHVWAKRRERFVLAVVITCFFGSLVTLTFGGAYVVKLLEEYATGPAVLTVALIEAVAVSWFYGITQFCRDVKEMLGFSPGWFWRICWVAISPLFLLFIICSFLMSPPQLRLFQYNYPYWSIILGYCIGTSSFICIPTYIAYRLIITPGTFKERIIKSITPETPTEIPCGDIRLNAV
IC50 reference
Numeric only. Scale: µM

The cases that follow already have their IC50 on record.
compound | IC50 (µM)
CCC1CC2CC3c4c(c5cc(O)ccc5n4CC)CCN(C2)C13 (stereo not shown) | 1.9
CCC1CC2CC3c4[nH]c5ccc(OC)c(Br)c5c4CCN(C2)C13 (stereo not shown) | 0.67
CCC1CC2CC3c4[nH]c5cc(Br)c(OC)cc5c4CCN(C2)C13 (stereo not shown) | 0.2

Now look at this one.
IC50 lookup needed for CCOc1ccc2[nH]c3c(c2c1)CCN1CC2CC(CC)C1C3C2 (stereo not shown) , thanks.
9

---

molecular target: hSERT (Homo sapiens, UniProt P31645); experiment: hSERT screening assay: inhibition of uptake of the fluorescent substrate APP+ in stably transfected hSERT-HEK cells; conditions: hSERT-HEK cells, APP+ 1.1 µM, mean ± SEM, n ≥ 4; read-out: SERT IC50
With a cut-off of 80 nM, any IC50 strictly below it is called satisfied; any IC50 meeting it or above is called not satisfied.

Hello, I'm reviewing records and need to know if IC50 of CCC1CC2CC3c4[nH]c5ccc(OC)c(Cl)c5c4CCN(C2)C13 (centres unmarked) is below 80 nM. Could you check?
not satisfied

Quick one: CCC1CC2CC3c4[nH]c5ccc(C#N)cc5c4CCN(C2)C13 (centres unmarked)
satisfied

Quick one: CCOc1ccc2c(c1)c1c(n2C)C2CC3CC(CC)C2N(CC1)C3 (centres unmarked)
not satisfied

Quick one: CCC1CC2CC3c4[nH]c5ccc(C(N)=O)cc5c4CCN(C2)C13 (centres unmarked) [Compound 2, Ibogamine-10-carboxamide]
not satisfied

Quick one: CCC1CC2CC3c4c(c5cc(C#N)ccc5n4C)CCN(C2)C13 (centres unmarked)
satisfied

Quick one: CCc1ccc2c(c1)c1c(n2C)C2CC3CC(CC)C2N(CC1)C3 (centres unmarked)
not satisfied

Quick one: CCCOc1ccc2[nH]c3c(c2c1)CCN1CC2CC(CC)C1C3C2 (centres unmarked)
not satisfied

Quick one: CCC1CC2CC3c4c(c5cc(OC)ccc5n4C)CCN(C2)C13 (centres unmarked)
not satisfied

Quick one: CCC1CC2CC3c4c(c5cc(O)ccc5n4C)CCN(C2)C13 (centres unmarked)
satisfied

Quick one: CCC1CC2CC3c4[nH]c5ccccc5c4CCN(C2)C13 (centres unmarked)
not satisfied

---

Assay: Metabolic stability and noribogaine formation in rat liver microsomes (RLM), LC-MS/MS
Details: male, rat, microsomes, pH 7.4
Experimental: Metabolism Studies. Metabolic stability of test compounds was evaluated in liver microsomes from rat (RLM) and human (HLM). […] Samples were monitored for parent compounds disappearance and formation of metabolite in MRM mode using LC-MS/MS instrument (API-4000 with Waters UPLC). The percent remaining of test compounds and positive control in each sample was determined by considering peak area ratio in the 0 minute sample as 100%. The Half-life of compounds in microsomes is calculated by formula: […]
half-life at 10 µM reference
Numeric only. Scale: min

molecule | scale.unit | half-life at 10 µM
CCC1CC2CC3c4[nH]c5ccc(OC)cc5c4CCN(C2)C13 (centres unmarked) | min | 8

Now look at this one.
half-life at 10 µM lookup needed for CCOc1ccc2[nH]c3c(c2c1)CCN1CC2CC(CC)C1C3C2 (centres unmarked) , thanks.
6

---

Target: rVMAT2 (Rattus norvegicus)
Construct: expressed in transfected cells; host or cells: HEK cells, stably transfected (rVMAT2-HEK)
Assay: rVMAT2 screening assay: inhibition of uptake of the fluorescent substrate FFN206 in stably transfected rVMAT2-HEK cells
Assay type: cell-based
Conditions: Cheng-Prusoff from IC50, Km (FFN206) = […]; read-out: VMAT2 Ki
Experimental: Stably transfected hSERT-HEK and rVMAT2-HEK cellular cultures were maintained in Dulbecco’s Minimal Essential Medium (DMEM) with GlutaMAX (Gibco) with the following additions: 10% (v/v) Fetal Bovine Serum (FBS, Atlanta Biologicals), 100 U/mL Penicillin, and 10 µg/mL Streptomycin (Gibco). […] Numerical analysis of the collected experimental data preceded as accordingly. Respective inhibitor values were first subtracted from vehicular values to quantify the respective fluorescence uptake. […]
readout: pKi
Quick note: pKi means taking -log10 of the concentration in moles per liter.

pKi lookup needed for CC[C@H]1C[C@H]2C[C@H]3c4[nH]c5ccc(O)cc5c4CCN(C2)[C@@H]13 [Noribogaine, reference compound] , thanks.
6.46

---

IC50 reference
molecular target: rVMAT2 (Rattus norvegicus, UniProt Q01827); construct: expressed in transfected cells; host or cells: HEK cells, stably transfected (rVMAT2-HEK); test: rVMAT2 screening assay: inhibition of uptake of the fluorescent substrate FFN206 in stably transfected rVMAT2-HEK cells; type: cell-based; settings: rVMAT2-HEK cells, FFN206 0.75 µM, mean ± SEM, n ≥ 4; read-out: VMAT2 IC50
Numeric only. Scale: nM

The cases that follow already have their IC50 on record.
compound | assayed.target | scale.unit | IC50
CCC1CC2CC3c4c(c5cc(O)ccc5n4CC)CCN(C2)C13 (centres unmarked) | rVMAT2 (Rattus norvegicus, UniProt Q01827) | nM | 70
CCC1CC2CC3c4[nH]c5ccc(C#N)cc5c4CCN(C2)C13 (centres unmarked) | rVMAT2 (Rattus norvegicus, UniProt Q01827) | nM | 3300
CCC1CC2CC3c4c(c5cc(O)ccc5n4C)CCN(C2)C13 (centres unmarked) | rVMAT2 (Rattus norvegicus, UniProt Q01827) | nM | 170
CCC1CC2CC3c4c(c5ccccc5n4C)CCN(C2)C13 (centres unmarked) | rVMAT2 (Rattus norvegicus, UniProt Q01827) | nM | 1500
CCC1CC2CC3c4[nH]c5ccc(OC)c(Cl)c5c4CCN(C2)C13 (centres unmarked) | rVMAT2 (Rattus norvegicus, UniProt Q01827) | nM | 18000

IC50 lookup needed for CCOc1ccc2[nH]c3c(c2c1)CCN1CC2CC(CC)C1C3C2 (centres unmarked) , thanks.
80

Quick one: CC[C@H]1C[C@H]2C[C@H]3c4[nH]c5ccc(O)cc5c4CCN(C2)[C@@H]13 [Noribogaine, reference compound]
570
